target: Akt2 (Homo sapiens, UniProt P31751); assay: STK HTRF KinEASE activity-based assay (IC50); details: read-out: HTRF IC50 Akt2, Mean; mean of replicates
Sequence (P31751 whole entry): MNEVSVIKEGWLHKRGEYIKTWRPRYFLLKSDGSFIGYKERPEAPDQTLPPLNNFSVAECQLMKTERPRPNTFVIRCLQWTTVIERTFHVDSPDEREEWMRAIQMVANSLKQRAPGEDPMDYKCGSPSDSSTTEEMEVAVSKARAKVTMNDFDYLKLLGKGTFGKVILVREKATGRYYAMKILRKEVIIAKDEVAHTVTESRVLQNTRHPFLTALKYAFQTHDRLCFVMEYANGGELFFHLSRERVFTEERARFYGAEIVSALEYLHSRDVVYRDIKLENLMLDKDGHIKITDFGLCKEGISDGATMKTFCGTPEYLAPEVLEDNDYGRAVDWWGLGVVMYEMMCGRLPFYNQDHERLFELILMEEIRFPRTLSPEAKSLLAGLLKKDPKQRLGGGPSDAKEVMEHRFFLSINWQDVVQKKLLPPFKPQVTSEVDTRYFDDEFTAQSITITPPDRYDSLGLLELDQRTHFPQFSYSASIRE
READOUT_TYPE: IC50 (nM)
Write the number in nM without appending the unit.

I looked up C=CC(=O)Nc1ccc2[nH]c(=O)n(C3CCN(Cc4ccc(-c5ncc(C(=O)O)cc5-c5ccccc5)cc4)CC3)c2c1 and its IC50 for Akt2 (Homo sapiens, UniProt P31751) was 248

----------
tested on: Ba/F3^myr-Akt3 cells; assay: CellTiter-Glo cell viability assay; conditions: Mus musculus, read-out: EC50 BaF3myr-Akt3, CTG
READOUT_TYPE: EC50

                           structure_string   result
0  C=CC(=O)Nc1ccc2[nH]c(=O)n(C3CCN(Cc4ccc(-c5ncc(Cc6cccc(O)c6)cc5-c5ccccc5)cc4)CC3)c2c1  > 30 µM
1  C=CC(=O)Nc1ccc2[nH]c(=O)n(C3CCN(Cc4ccc(-c5ncc(CO)cc5-c5ccccc5)cc4)CC3)c2c1  > 30 µM
2  C=CC(=O)Nc1ccc2[nH]c(=O)n(C3CCN(Cc4ccc(-c5ncc(C)cc5-c5ccccc5)cc4)CC3)c2c1  > 30 µM

Turning to the following molecule.
Recorded EC50 (molecule C=CC(=O)Nc1ccc2[nH]c(=O)n(C3CCN(Cc4ccc(-c5ncccc5-c5ccccc5)cc4)CC3)c2c1 ): > 30 µM

----------
A collection of molecules and their measured pIC50
molecular target: Akt2 (Homo sapiens); assay: STK HTRF KinEASE activity-based assay (IC50); conditions: HTRF IC50 Akt2, Mean, mean of replicates
pIC50 is defined as minus the log10 of a concentration measured in mol/L.

                                   molecule  quantitative_result
0  C=CC(=O)Nc1ccc2[nH]c(=O)n(C3CCN(Cc4ccc(-c5ncc(Cc6ccc(N)cc6)cc5-c5ccccc5)cc4)CC3)c2c1 [compound 19]                 6.29
1  C=CC(=O)Nc1ccc2[nH]c(=O)n(C3CCN(Cc4ccc(-c5ncc(Cc6cccnc6)cc5-c5ccccc5)cc4)CC3)c2c1 [compound 21]                 7.01

Recorded pIC50 (molecule C=CC(=O)Nc1ccc2[nH]c(=O)n(C3CCN(Cc4ccc(-c5ncc(C(=O)Nc6ccccn6)cc5-c5ccccc5)cc4)CC3)c2c1 [compound 23] ): 6.82

----------
A collection of compounds and their measured kinact/KI
target: UniProtKB P31749; assay: PhosphoSens continuous fluorometric kinetic enzyme assay; conditions: read-out: kinact /Ki Akt1, Mean, mean of replicates
Write the number in M⁻¹ s⁻¹ without appending the unit.

Completed entries (count: 3):
>>> df
                           structure_string  readout_type  quantitative_result
0  C=CC(=O)Nc1ccc2[nH]c(=O)n(C3CCN(Cc4ccc(-c5ncc(C(=O)Nc6cccc(N)c6)cc5-c5ccccc5)cc4)CC3)c2c1     kinact/KI                44000
1  C=CC(=O)Nc1ccc2[nH]c(=O)n(C3CCN(Cc4ccc(-c5ncccc5-c5ccccc5)cc4)CC3)c2c1     kinact/KI                36000
2  C=CC(=O)Nc1ccc2[nH]c(=O)n(C3CCN(Cc4ccc(-c5ncc(C(=O)Nc6cnn(C)c6)cc5-c5ccccc5)cc4)CC3)c2c1     kinact/KI                31000

I looked up C=CC(=O)Nc1ccc2[nH]c(=O)n(C3CCN(Cc4ccc(-c5ncc(C(=O)Nc6cccnc6)cc5-c5ccccc5)cc4)CC3)c2c1 and its kinact/KI for UniProtKB P31749 was 26000

----------
test system: Ba/F3^myr-Akt1 cells; assay: CellTiter-Glo cell viability assay; settings: Mus musculus, read-out: CTG BaF3myr-Akt1, Mean, mean of replicates
A collection of compounds and their measured pEC50
pEC50 is defined as minus the log10 of a concentration measured in mol/L.

Recorded pEC50 (compound NC1(C(=O)N[C@@H](CCO)c2ccc(Cl)cc2)CCN(c2ncnc3[nH]ccc23)CC1 [Capivasertib, reference compound] ): 5.97

Recorded pEC50 (compound C=CC(=O)Nc1ccc2[nH]c(=O)n(C3CCN(Cc4ccc(-c5ncc(C)cc5-c5ccccc5)cc4)CC3)c2c1 ): 5.51

----------
biological target: Akt1 (Homo sapiens, UniProt P31749); experiment: STK HTRF KinEASE activity-based assay (IC50); conditions: IC50 Akt1, HTRF, ATP at KM, 1 h preincubation
Sequence (P31749 whole entry): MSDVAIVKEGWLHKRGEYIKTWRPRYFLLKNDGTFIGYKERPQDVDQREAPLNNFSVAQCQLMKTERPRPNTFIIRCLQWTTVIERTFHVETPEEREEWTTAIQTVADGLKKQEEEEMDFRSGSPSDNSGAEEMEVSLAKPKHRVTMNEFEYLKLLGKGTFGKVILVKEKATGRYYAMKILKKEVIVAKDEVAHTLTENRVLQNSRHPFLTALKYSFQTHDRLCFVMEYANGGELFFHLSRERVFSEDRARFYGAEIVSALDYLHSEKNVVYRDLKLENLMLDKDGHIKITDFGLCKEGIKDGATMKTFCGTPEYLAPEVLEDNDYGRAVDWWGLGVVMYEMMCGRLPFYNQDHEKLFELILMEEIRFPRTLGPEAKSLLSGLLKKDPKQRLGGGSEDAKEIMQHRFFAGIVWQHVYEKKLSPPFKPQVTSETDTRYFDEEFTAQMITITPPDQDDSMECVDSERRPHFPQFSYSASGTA
READOUT_TYPE: IC50 (nM)
Write the number in nM without appending the unit.

>>> print(df.to_string())
                           structure_string  readout_type  quantitative_result
0  C=CC(=O)Nc1ccc2[nH]c(=O)n(C3CCN(Cc4ccc(-c5ncc(C(=O)Nc6cccnc6)cc5-c5ccccc5)cc4)CC3)c2c1          IC50                  209
1  C=CC(=O)Nc1ccc2[nH]c(=O)n(C3CCN(Cc4ccc(-c5ncc(Cc6cnn(C)c6)cc5-c5ccccc5)cc4)CC3)c2c1          IC50                 1280
2  C=CC(=O)Nc1ccc2[nH]c(=O)n(C3CCN(Cc4ccc(-c5ncc(Cc6ccc(N)nc6)cc5-c5ccccc5)cc4)CC3)c2c1          IC50                 1630
3  C=CC(=O)Nc1ccc2[nH]c(=O)n(C3CCN(Cc4ccc(-c5ncc(Cc6ccc(C)o6)cc5-c5ccccc5)cc4)CC3)c2c1          IC50                  604
4  C=CC(=O)Nc1ccc2[nH]c(=O)n(C3CCN(Cc4ccc(-c5ncc(C(=O)NCC(C)C)cc5-c5ccccc5)cc4)CC3)c2c1          IC50                 1720

Turning to the following molecule.
Recorded IC50 (molecule C=CC(=O)Nc1ccc2[nH]c(=O)n(C3CCN(Cc4ccc(-c5ncc(C)cc5-c5ccccc5)cc4)CC3)c2c1 ): 22

----------
system: parental Ba/F3 cells; assay: CellTiter-Glo cell viability assay; assay type: cell-based, murine; conditions: parental cells; mean of replicates; read-out: CTG BaF3, Mean
READOUT_TYPE: EC50

Recorded EC50 (molecule C=CC(=O)Nc1ccc2[nH]c(=O)n(C3CCN(Cc4ccc(-c5ncc(C(=O)O)cc5-c5ccccc5)cc4)CC3)c2c1 [compound 4] ): > 30 µM

----------
molecular target: Akt1 (Homo sapiens, UniProt P31749); test: STK HTRF KinEASE activity-based assay (IC50); conditions: IC50 Akt1, HTRF, ATP at KM, 1 h preincubation
// returns Not fulfilled unless IC50 is strictly below 6000 nM, in which case Fulfilled

>>> df
                           structure_string                            tested_on  label_value
0  C=CC(=O)Nc1ccc2[nH]c(=O)n(C3CCN(Cc4ccc(-c5ncccc5-c5ccccc5)cc4)CC3)c2c1  Akt1 (Homo sapiens, UniProt P31749)    Fulfilled

Lab note: next compound to report on.
A record lists C=CC(=O)Nc1ccc2[nH]c(=O)n(C3CCN(Cc4ccc(-c5ncc(C(=O)Nc6ccccn6)cc5-c5ccccc5)cc4)CC3)c2c1 . Is its IC50 below 6000 nM?
Fulfilled

----------
biological target: Akt2 (Homo sapiens); experiment: PhosphoSens continuous fluorometric kinetic enzyme assay; settings: read-out: kinact /Ki Akt2, Mean, mean of replicates
Outcome label depends on kinact/KI relative to 20000 M⁻¹ s⁻¹: at/above gives true (1), below gives false (0).

Solved cases (3 shown):
In [3]: df
Out[3]:
                           structure_string  label_value
0  C=CC(=O)Nc1ccc2[nH]c(=O)n(C3CCN(Cc4ccc(-c5ncc(C(=O)Nc6cnn(C)c6)cc5-c5ccccc5)cc4)CC3)c2c1    false (0)
1  C=CC(=O)Nc1ccc2[nH]c(=O)n(C3CCN(Cc4ccc(-c5ncc(C(=O)Nc6cccnc6)cc5-c5ccccc5)cc4)CC3)c2c1     true (1)
2  C=CC(=O)Nc1ccc2[nH]c(=O)n(C3CCN(Cc4ccc(-c5ncc(C(=O)Nc6cccc(N)c6)cc5-c5ccccc5)cc4)CC3)c2c1    false (0)

Lab note: next compound to report on.
Could you tell me if the measured kinact/KI of C=CC(=O)Nc1ccc2[nH]c(=O)n(C3CCN(Cc4ccc(-c5ncc(Cc6ccc(N)nc6)cc5-c5ccccc5)cc4)CC3)c2c1 reaches 20000 M⁻¹ s⁻¹ or more?
false (0)

----------
target: Akt2 (Homo sapiens); assay: PhosphoSens continuous fluorometric kinetic enzyme assay; settings: read-out: kinact /Ki Akt2, individual determinations, single replicates
READOUT_TYPE: kinact/KI (M⁻¹ s⁻¹)
Write the number in M⁻¹ s⁻¹ without appending the unit.

Completed entries (count: 2):
>>> df
                           structure_string  value_unit  quantitative_result
0  C=CC(=O)Nc1ccc2[nH]c(=O)n(C3CCN(Cc4ccc(-c5ncc(C(=O)NCC(C)C)cc5-c5ccccc5)cc4)CC3)c2c1     M⁻¹ s⁻¹                27000
1  C=CC(=O)Nc1ccc2[nH]c(=O)n(C3CCN(Cc4ccc(-c5ncc(C(=O)Nc6cccc(N)c6)cc5-c5ccccc5)cc4)CC3)c2c1     M⁻¹ s⁻¹                15000

Turning to the following compound.
I looked up C=CC(=O)Nc1ccc2[nH]c(=O)n(C3CCN(Cc4ccc(-c5ncc(C(=O)Nc6cnn(C)c6)cc5-c5ccccc5)cc4)CC3)c2c1 and its kinact/KI for Akt2 (Homo sapiens) was 7430

The origin of these recorded values is paper PMC8421423.
